# Assay Remarks: small-molecule microarray binders of probe aNog, primary screen, biochemical, biotinylated probe, 635/667 nm fluorescence (AID 1115);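 also: probe is biotinylated aNog protein used at 0.15 µg/mL for 1 h at 4 C; z-score combines 667 nm fluorescence of each spot with its signal to noise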
# Experimental Setup: higher = more signal
Short version: composite z-score at least -0.06 is 1, less is -1.

Known results for compounds:
# check: composite z-score of CC1CC/C=C\[C@H]2OC34C=CCN(C(C)C)C(=O)[C@H]3N(C(C)CO)C(=O)[C@@H]4C2C(=O)O1 (some centres not stated) is greater than or equal to -0.06 1

# check: composite z-score of CCCCN1CC=CC23O[C@@H]4/C=C\CCC(C)OC(=O)C4[C@H]2C(=O)N(CCO)[C@@H]3C1=O (some centres not stated) is greater than or equal to -0.06 1

# check: composite z-score of `Cc1ccc(S[C@]2(C(=O)NC3CC3)CC(=O)N(C3Cc4ccccc4C3)[C@@H]2c2ccc(CO)cc2I)cc1` is greater than or equal to -0.06 1

Others:
# check: composite z-score of `OCCCc1cc[n+](Cc2cc3c(cc2Br)OCO3)cc1` is greater than or equal to -0.06 -1

# check: composite z-score of `CC(C)(C)OC(=O)CC[C@]1(C(=O)N2CCOCC2)COC(c2ccc(OCCCO)cc2)=N1` is greater than or equal to -0.06 -1

# check: composite z-score of `COc1ccc(C(=O)Nc2ccc(CN3C(=O)[C@@]4(O[C@@H](CC(=O)N(CCO)Cc5ccccc5)[C@H]([Si](C)(C)c5ccc(OC)cc5)[C@H]4C)c4ccccc43)cc2)cc1` is greater than or equal to -0.06 -1
